Taken from PubChem BioAssay AID504444.

test: Nrf2 qHTS screen for inhibitors; details: A549 ARE-Fluc reporter, luciferase luminescence, 18-24 h; series mostly up to 46 µM; note: nearly all actives have a fitted effect of over 60% in size
The whole screen tested about 360,000 compounds, of which about 7,500 (2.1%) were called active. Not shown: some 20% with an inconclusive outcome. Calls come from the whole dose curve; as a rule, active = well fitted inhibition curve with a large enough effect; inconclusive = small, poorly fitted or top-dose-only effect, or effect the other way; inactive = flat fitted curve, though single readings scatter. The entries come from a sample that favours actives as a whole.
// classify into 1 (active), 0 (inactive)

>>> label_value("CC(=O)c1cccc(NC(=O)COc2ccc(S(=O)(=O)N3CCOCC3)cc2)c1")
0
>>> label_value("CC1Sc2ccc(C(=O)NCc3ccccc3Cl)cc2NC1=O (stereo not given)")
0
>>> label_value("CC(=O)c1cccc(Nc2ccc3cc(S(=O)(=O)N4CCC(C)CC4)ccc3n2)c1")
1
>>> label_value("CN1CCN(S(=O)(=O)c2ccc(N3CCN(c4ccccc4O)CC3)c([N+](=O)[O-])c2)CC1")
1
>>> label_value("CN1CCN(C2(CNC(=O)COc3ccc(C(C)(C)C)cc3)CCCCC2)CC1")
0
>>> label_value("CCc1nn(CC(=O)N2CCN(c3cc(C)ccc3C)CC2)c(=O)c2cc3occc3n12")
0
>>> label_value("Cc1ccc(C)c(N2CCN(C(=O)Cn3ncn4cccc4c3=O)CC2)c1")
1
>>> label_value("Cc1cc(N)n(-c2ccc(S(=O)(=O)N3CCCC3)cc2[N+](=O)[O-])n1")
0
>>> label_value("CCOc1ccc(S(=O)(=O)c2cn(Cc3ccccc3)c3ccc(OCC)cc3c2=O)cc1")
0

Write down the call the test reported for this compound. Item: "CC(=O)c1cccc(S(=O)(=O)N2CCC(n3nnc4cc(F)ccc43)CC2)c1" 0
